Values were extracted from PubChem BioAssay AID1159580.

# Protocol Details: chemical genetic growth profiling, strain panel (AID 1159580);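 further: tested at 20 µM; growth read once vehicle control cultures reached saturation at 30 °C; 1 = growth at the plate median or of vehicle wells; lower values mean less growth of the strain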
# Conditions Used: S. cerevisiae deletion strains, growth OD, locus YPL055C, strain LGE1, stronger effect = lower value
Screen size: about 5,500 compounds; about 2,000 (36%) were called active. Another 18% or so got no clear call; they are omitted. This is one part of the list.
Endpoint Label: normalized growth
Lab note: record the figure alone, no unit after it.

Exercise: Quote normalized growth reported for CN(C)CCc1c[nH]c2ccc(CS(=O)(=O)N3CCCC3)cc12 please.
Key: 1.02

Exercise: Using known records, supply normalized growth for CC(C)NCC(O)c1ccc(NS(C)(=O)=O)cc1 (stereo unspecified)
Key: 0.977

Exercise: // fetch normalized growth given entry Cc1ccc(-c2nn(-c3ccccc3)c(=O)c3ccccc23)cc1C
Key: 0.928

Exercise: Dear colleague, please send me the reported normalized growth for Cc1cc(C(C)(C)C)c(O)c(C)c1CC1=NCCN1 when you can.
Key: 0.983

Exercise: Dear colleague, please send me the reported normalized growth for Cc1cc(C(C)(C)C)cc(C)c1CC1=NCCN1 when you can.
Key: 1.04

Exercise: Item CCC(=O)Nc1cc(OC)cc(OC)c1 : provide normalized growth
Key: 1.13
